# IC50 listing for each entry below
- Test system: 633275-114-R-J1-PDC complex spheroids, viability;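 further: spheroids exposed to the agents for seven days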
- ASSAY METHOD TEXT: Anticancer human tumor 633275-114-R-J1-PDC patient-derived endometrial adenocarcinoma cell line growth inhibition [GQUAD]
- DETAILS: curve of first compound; second compound 0.316 µM
PROPERTY NAME: IC50 (nM)

# COMPOUND, TESTED ON, QUALIFIER OPERATOR, NUMERIC READOUT
measured = [
    ("CC(C)(O)C1CCC(Nc2ccc3ncc(-c4cccc(C(F)(F)F)c4)n3n2)CC1 (stereo not given) + Cc1cnc(CNC(=O)c2c(=O)c3ccc(N4CCCN(C)CC4)nc3n3c2sc2ccccc23)cn1", "633275-114-R-J1-PDC complex spheroids, viability", "<", 31.6),
    ("COc1ccc([C@@H](O)c2cc(-c3ncnc4cc(N5CCOCC5)ccc34)c(F)cc2Cl)nn1 + Cc1cnc(CNC(=O)c2c(=O)c3ccc(N4CCCN(C)CC4)nc3n3c2sc2ccccc23)cn1", "633275-114-R-J1-PDC complex spheroids, viability", "<", 31.6),
    ("CC1COCCN1c1cc(C2(S(C)(=N)=O)CC2)nc(-c2ccnc3[nH]ccc23)n1 (stereo not given) + Cc1[nH]c2ccc(F)cc2c1-c1nc2c3cccnc3c3ncccc3c2[nH]1", "633275-114-R-J1-PDC complex spheroids, viability", "=", 3550),
    ("C#Cc1c(F)ccc2cc(O)cc(-c3ncc4c(N5CC6CCC(C5)N6)nc(OCC56CCCN5CC(F)C6)nc4c3F)c12 (stereo not given) + Cc1[nH]c2ccc(F)cc2c1-c1nc2c3cccnc3c3ncccc3c2[nH]1", "633275-114-R-J1-PDC complex spheroids, viability", ">", 10000),
    ("CC1COCCN1c1cc(-c2ccnn2C)c2ccnc(-c3ccn[nH]3)c2n1 (stereo not given) + CN(C)c1ccc(Nc2c3ccc(NC(=O)CCN4CCCC4)cc3nc3cc(NC(=O)CCN4CCCC4)ccc23)cc1", "633275-114-R-J1-PDC complex spheroids, viability", "=", 175),
]
